// provenance: patent US8497276B2

target system: UniProt P42680
Sequence (P42680 1-631): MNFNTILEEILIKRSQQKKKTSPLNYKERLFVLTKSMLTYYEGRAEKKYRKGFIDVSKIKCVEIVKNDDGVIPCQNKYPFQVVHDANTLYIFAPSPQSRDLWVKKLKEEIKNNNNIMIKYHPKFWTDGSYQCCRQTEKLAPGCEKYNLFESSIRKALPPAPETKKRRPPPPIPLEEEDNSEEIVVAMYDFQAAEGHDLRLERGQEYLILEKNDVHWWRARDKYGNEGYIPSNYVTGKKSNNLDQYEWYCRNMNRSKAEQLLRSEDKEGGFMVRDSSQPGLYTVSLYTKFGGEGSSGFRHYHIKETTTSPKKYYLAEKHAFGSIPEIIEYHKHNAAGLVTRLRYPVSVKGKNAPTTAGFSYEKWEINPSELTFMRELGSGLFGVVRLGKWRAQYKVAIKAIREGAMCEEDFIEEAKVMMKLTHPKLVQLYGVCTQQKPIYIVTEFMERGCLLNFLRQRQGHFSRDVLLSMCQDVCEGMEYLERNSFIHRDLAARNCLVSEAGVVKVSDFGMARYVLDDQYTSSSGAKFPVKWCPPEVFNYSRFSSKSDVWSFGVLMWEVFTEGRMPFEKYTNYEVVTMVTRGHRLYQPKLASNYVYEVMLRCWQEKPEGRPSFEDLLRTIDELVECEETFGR
assay protocol: Tec Kinase Activity Assay
Format: biochemical
measurement parameters: 75 μM ATP, Pyk-2 substrate; compound concentration not given
value type: Biochemical IC50 (% inhibition) Tec

CC(C)c1ccc(C2c3[nH]c4ccccc4c3CCN2c2ncnc3[nH]ccc23)cc1 (centres unmarked) [Compound 18] ... C (C = <50% inhibition)
COc1ccc(C2c3[nH]c4ccccc4c3CCN2c2ncnc3[nH]cnc23)cc1 (centres unmarked) [Compound 29] ... C (C = <50% inhibition)

---

System: PC-3
assay protocol: MTS Assay (cell growth inhibition), PC-3
Format: cell-based
measurement parameters: PC-3 cells, 72 hours with test compound; concentration not given
value type: MTS cell kill data (% inhibition) PC-3

The cases that follow already have their MTS cell kill data (% inhibition) PC-3 on record.
Brc1n[nH]c2ncnc(N3CCc4c([nH]c5ccccc45)C3)c12 [Compound 1] ... C (C = <50% inhibition)
c1ccc(C2c3[nH]c4ccccc4c3CCN2c2ncnc3[nH]cnc23)cc1 (centres unmarked) [Compound 25] ... C (C = <50% inhibition)
Fc1c(Cl)cccc1C1c2[nH]c3ccccc3c2CCN1c1ncnc2[nH]cnc12 (centres unmarked) [Compound 3] ... C (C = <50% inhibition)
COc1ccc(C2c3[nH]c4ccccc4c3CCN2c2ncnc3[nH]ccc23)cc1OC (centres unmarked) [Compound 22] ... C (C = <50% inhibition)
FC(F)(F)c1cccc(C2c3[nH]c4ccccc4c3CCN2c2ncnc3[nH]ncc23)c1 (centres unmarked) [Compound 9] ... C (C = <50% inhibition)
COc1ccc(C2c3[nH]c4ccccc4c3CCN2c2ncnc3[nH]cnc23)cc1OC (centres unmarked) [Compound 23] ... C (C = <50% inhibition)
CC(C)c1ccc(C2c3[nH]c4ccccc4c3CCN2c2ncnc3[nH]ccc23)cc1 (centres unmarked) [Compound 18] ... C (C = <50% inhibition)
CC(C)c1ccc(C2c3[nH]c4ccccc4c3CCN2c2ncnc3[nH]cnc23)cc1 (centres unmarked) [Compound 19] ... C (C = <50% inhibition)

Prompt line: Supply reported MTS cell kill data (% inhibition) PC-3 belonging to this molecule: Nc1nc(N2CCc3c([nH]c4ccccc34)C2Cc2ccccc2)c2nc[nH]c2n1 (centres unmarked) [Compound 16]
Response line: C (C = <50% inhibition)

Prompt line: Supply reported MTS cell kill data (% inhibition) PC-3 belonging to this molecule: CC(C)c1ccc(C2c3[nH]c4ccccc4c3CCN2c2nc(N)nc3[nH]cnc23)cc1 (centres unmarked) [Compound 20]
Response line: C (C = <50% inhibition)

Prompt line: Supply reported MTS cell kill data (% inhibition) PC-3 belonging to this molecule: Clc1ccccc1C1c2[nH]c3ccccc3c2CCN1c1ncnc2[nH]cnc12 (centres unmarked) [Compound 13]
Response line: C (C = <50% inhibition)
